Reference for the values: patent US20240383958A1

assayed.system: T1, apelin receptor (AGTRL1) on CHO-K1 cells (UniProt P35414 1-380, limits assumed)
T1 sequence (looked up): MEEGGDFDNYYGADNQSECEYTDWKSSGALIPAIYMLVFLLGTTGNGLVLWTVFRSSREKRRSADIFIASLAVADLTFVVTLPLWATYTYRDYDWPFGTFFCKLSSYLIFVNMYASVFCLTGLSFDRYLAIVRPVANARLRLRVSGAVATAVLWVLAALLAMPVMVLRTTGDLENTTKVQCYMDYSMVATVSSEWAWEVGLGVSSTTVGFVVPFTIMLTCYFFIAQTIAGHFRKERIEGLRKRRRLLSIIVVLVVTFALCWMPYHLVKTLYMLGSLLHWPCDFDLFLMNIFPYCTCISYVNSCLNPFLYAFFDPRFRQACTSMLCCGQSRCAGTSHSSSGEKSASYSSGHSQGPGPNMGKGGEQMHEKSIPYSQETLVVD
procedure.details: cell-based or functional assay
As shown below, each of these binders has a reported cAMP EC50 (nM) Exp. 1 value.
Report the figure in nM without appending any unit label.

Example binders with recorded cAMP EC50 (nM) Exp. 1:
binder="ELA-C (Fc fusion) DKTHTSPPSPAPEAAGGPSVFLFPPKPKDTLMISRTPEVTCVVVDVSHEDPEVKFNWYVDGVEVHNAKTKPREEQYNSTYRVVSVLTVLHQDWLNGKEYKCKVSNKALPAPIEKTISKAKGQPREPQVYTLPPSREEMTKNQVNLTCLVKGFYPSDIAVEWESNGQPENNYKTTPPVLDSDGSFFLNSTLTVDKSRWQQGNVFSCSVMHEALHNHYTQKSLSLSPGKGGGGSGGGGSGGGGSKLRKHNCLQRRCMILHSRVPFP" value_reported=0.577
binder="ELA-J (Fc fusion) DKTHTSPPSPAPEAAGGPSVFLFPPKPKDTLMISRTPEVTCVVVDVSHEDPEVKFNWYVDGVEVHNAKTKPREEQYNSTYRVVSVLTVLHQDWLNGKEYKCKVSNKALPAPIEKTISKAKGQPREPQVYTLPPSREEMTKNQVNLTCLVKGFYPSDIAVEWESNGQPENNYKTTPPVLDSDGSFFLNSTLTVDKSRWQQGNVFSCSVMHEALHNHYTQKSLSLSPGKGGGGSGGGGSGGGGSKLRKHNCLQERCMPLHSRVPFP" value_reported=18.6

Kindly review the next binder as well.
State the recorded cAMP EC50 (nM) Exp. 1 for this entry: ELA-I (Fc fusion) DKTHTSPPSPAPEAAGGPSVFLFPPKPKDTLMISRTPEVTCVVVDVSHEDPEVKFNWYVDGVEVHNAKTKPREEQYNSTYRVVSVLTVLHQDWLNGKEYKCKVSNKALPAPIEKTISKAKGQPREPQVYTLPPSREEMTKNQVNLTCLVKGFYPSDIAVEWESNGQPENNYKTTPPVLDSDGSFFLNSTLTVDKSRWQQGNVFSCSVMHEALHNHYTQKSLSLSPGKGGGGSGGGGSGGGGSKLRKHNSLQRRYMPLHSRVPFP
22.9
